- tested-on: Histamine H1 receptor (Homo sapiens, UniProt P35367)
- Sequence (P35367 whole entry): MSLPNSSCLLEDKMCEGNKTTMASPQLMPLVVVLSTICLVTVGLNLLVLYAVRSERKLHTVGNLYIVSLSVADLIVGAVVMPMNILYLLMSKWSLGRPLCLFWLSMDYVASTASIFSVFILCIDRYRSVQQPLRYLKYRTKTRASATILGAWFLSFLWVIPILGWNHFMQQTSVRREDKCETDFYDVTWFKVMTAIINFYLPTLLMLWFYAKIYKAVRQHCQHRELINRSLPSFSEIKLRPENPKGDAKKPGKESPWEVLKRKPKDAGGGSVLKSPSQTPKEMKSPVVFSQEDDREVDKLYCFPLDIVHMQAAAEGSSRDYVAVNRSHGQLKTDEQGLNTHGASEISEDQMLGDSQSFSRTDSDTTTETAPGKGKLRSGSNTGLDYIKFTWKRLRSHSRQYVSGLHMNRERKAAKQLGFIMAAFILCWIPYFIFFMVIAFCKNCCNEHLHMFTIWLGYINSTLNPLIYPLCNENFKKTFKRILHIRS
endpoint-name: Ki (nM)
Give a bare numeral; the unit nM is implied.

Record summary for COc1ccc(S(=O)(=O)n2cc(C)c3cc(Cl)cnc32)cc1NC1CCN(C)CC1 : reported Ki = 586

###

Documented half-life across a set of compounds
- assay: Half life in Wistar rat at 5 mg/kg, iv
- Assay type: ADME, organism-based
- Parameters: dose 5 mg/kg, route intravenous
- experimental-conditions: in vivo
Give a bare numeral; the unit h is implied.

Use these answered entries as a reference point.
chem_smiles=COc1ccc(S(=O)(=O)n2cc(C)c3cc(Cl)cnc32)cc1NC1CCN(C)CC1 endpoint_name=half-life output_unit=h quantitative_readout=1.7
chem_smiles=COc1ccc(S(=O)(=O)N2CCOc3ccc(Cl)cc32)cc1NC1CCN(C)CC1 endpoint_name=half-life output_unit=h quantitative_readout=0.7

Record summary for COc1ccc(S(=O)(=O)n2nc(C)c3cc(Cl)ccc32)cc1NC1CCN(C)CC1.O=C(O)C(O)C(O)C(=O)O : reported half-life = 1.7
